IC50: recorded values
# target-desc: carboxypeptidase B (Sus scrofa, UniProt P09955)
# Construct: carboxypeptidase B purified from swine pancreas; purchased C; F. Boehringer & Soehne GmbH, Mannheim; host or cells: swine pancreas
# Sequence (P09955 111-416): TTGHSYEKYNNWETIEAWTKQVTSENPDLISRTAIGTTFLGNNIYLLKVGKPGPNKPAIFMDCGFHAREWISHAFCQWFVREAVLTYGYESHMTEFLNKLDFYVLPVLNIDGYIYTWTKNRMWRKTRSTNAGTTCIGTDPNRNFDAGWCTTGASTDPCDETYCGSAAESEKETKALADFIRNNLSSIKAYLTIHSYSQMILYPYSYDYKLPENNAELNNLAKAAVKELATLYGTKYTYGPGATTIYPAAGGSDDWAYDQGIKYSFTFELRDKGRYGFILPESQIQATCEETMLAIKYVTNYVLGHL
# run-description: Inhibition of the action of carboxypeptidase B
# Assay type: biochemical
# condition-set: carboxypeptidase B purified from swine pancreas, 37°C, 30 minutes, pH 8.0; read-out: CP-B inhibition IC50 (converted)
measurement-kind: IC50 (µM)

# test-smiles, measurement-kind, comparison-sign, recorded-value
measured = [
    ("O=C(O)[C@H](Cc1ccccc1)NCCN[C@@H](Cc1c[nH]cn1)C(=O)O", "IC50", "=", 185),
    ("CCOC(=O)[C@H](Cc1ccccc1)NCCN[C@@H](Cc1c[nH]cn1)C(=O)O", "IC50", ">", 534),
    ("NCCC[C@H](NCCN[C@@H](Cc1c[nH]cn1)C(=O)O)C(=O)O", "IC50", "=", 357),
    ("NCCCC[C@H](NCCN[C@@H](Cc1c[nH]cn1)C(=O)O)C(=O)O", "IC50", ">", 611),
    ("O=C(O)[C@H](Cc1c[nH]cn1)NCCN1CCC[C@H]1C(=O)O", "IC50", ">", 675),
    ("O=C(O)[C@H](Cc1c[nH]cn1)NCCN[C@@H](Cc1c[nH]cn1)C(=O)O", "IC50", "=", 178),
    ("O=C(O)C[C@H](NCCN[C@@H](Cc1c[nH]cn1)C(=O)O)C(=O)O", "IC50", ">", 636),
]
